System: MDA−MB−231 cells
Test: Cellular uptake of Pt by ICP-MS
Format: cell-based
Settings: MDA−MB−231, 3 µM, 12 h
Entries and their measured Intracellular Concentration follow.
Give the figure together with its unit, number first.

Consider the following illustrative entries.
N.N.[Cl][Pt][Cl] [Cisplatin, cisplatin]	0.19 nmol/10^6 cells
Cc1c(C)c2cccnc2c2ncccc12.N[C@H]1CCCC[C@@H]1N.O=[N+]([O-])[O-].O=[N+]([O-])[O-].[OH][Pt+2][OH]	1.16 nmol/10^6 cells
Cc1cc2cccnc2c2ncccc12.N[C@H]1CCCC[C@@H]1N.O=[N+]([O-])[O-].O=[N+]([O-])[O-].[OH][Pt+2][OH]	1.19 nmol/10^6 cells

Provide Intracellular Concentration value for the following molecule: Cc1cc2cccnc2c2ncccc12.N[C@H]1CCCC[C@@H]1N.O=[N+]([O-])[O-].O=[N+]([O-])[O-].[Pt+2]
4.82 nmol/10^6 cells

====

Test system: HT29 cells
Test: Cellular uptake of Pt by ICP-MS
Assay type: cell-based
Conditions: HT29, 3 µM, 1 h
Description: A final concentration of 10^6 cells/well of MDA−MB−231 and HT29 cells were seeded in 6-well plates and incubated overnight to adhere. The cells were then treated with a final concentration of 3 µM of either Pt^II or Pt^IV complexes. After 0, 0.5, 1, 3, 6, 12, 24 or 30 h, the medium was removed, and the cells were washed three times with cold PBS and allowed to dry. […] The results represent an average of three different experiments run in triplicate (±SEM) and expressed as nmol/10^6 cells or µM/cell. […]
propertyLabel: Intracellular Concentration (nmol/10^6 cells)
# value in nmol/10^6 cells; strip the unit string

Consider the following illustrative entries.
Cc1cc2cccnc2c2ncccc12.N[C@H]1CCCC[C@@H]1N.O=[N+]([O-])[O-].O=[N+]([O-])[O-].[Pt+2]	1.26
N[C@H]1CCCC[C@@H]1N.O=[N+]([O-])[O-].O=[N+]([O-])[O-].[OH-].[OH-].[Pt+4].c1cnc2c(c1)ccc1cccnc12	0.18
N[C@H]1CCCC[C@@H]1N.O=[N+]([O-])[O-].O=[N+]([O-])[O-].[Pt+2].c1cnc2c(c1)ccc1cccnc12	0.72

Query molecule follows.
Provide Intracellular Concentration value for the following molecule: N.N.[Cl][Pt][Cl] [Cisplatin, cisplatin]
0.14

====

Tested on: MDA−MB−231 cells
Assay: Western blot protein expression
Type: cell-based
Conditions: MDA−MB−231, IC50, 72 h, representative blot Figure S25A
Entries and their measured p-AKT/AKT/GAPDH normalized to control (1) follow.
// no unit string in output, number only

Cc1c(C)c2cccnc2c2ncccc12.N[C@H]1CCCC[C@@H]1N.O=[N+]([O-])[O-].O=[N+]([O-])[O-].[OH][Pt+2][OH] [Pt^IV56MESS(OH)2]	0.79

Provide p-AKT/AKT/GAPDH normalized to control (1) value for the following molecule: Cc1cc2cccnc2c2ncccc12.N[C@H]1CCCC[C@@H]1N.O=[N+]([O-])[O-].O=[N+]([O-])[O-].[OH][Pt+2][OH] [Pt^IV5MESS(OH)2]
0.9345

Provide p-AKT/AKT/GAPDH normalized to control (1) value for the following molecule: N.N.[Cl][Pt][Cl] [Cisplatin, cisplatin]
0.6181

Provide p-AKT/AKT/GAPDH normalized to control (1) value for the following molecule: N[C@H]1CCCC[C@@H]1N.O=[N+]([O-])[O-].O=[N+]([O-])[O-].[OH-].[OH-].[Pt+4].c1cnc2c(c1)ccc1cccnc12
1.063

====

System: HT29 cells
Experiment: TMRE mitochondrial membrane potential assay
Assay type: cell-based
Conditions: HT29, 48 h, complexes at IC50, FCCP 20 µM
propertyLabel: MtMp (mitochondrial membrane potential) (RFU)
# value in RFU; strip the unit string

Consider the following illustrative entries.
N[C@H]1CCCC[C@@H]1N.O=[N+]([O-])[O-].O=[N+]([O-])[O-].[Pt+2].c1cnc2c(c1)ccc1cccnc12	256.63
N.N.[Cl][Pt][Cl] [Cisplatin, cisplatin]	237.68
N#CC(C#N)=NNc1ccc(OC(F)(F)F)cc1 [FCCP, reference compound]	143.31

Provide MtMp (mitochondrial membrane potential) value for the following molecule: Cc1cc2cccnc2c2ncccc12.N[C@H]1CCCC[C@@H]1N.O=[N+]([O-])[O-].O=[N+]([O-])[O-].[OH][Pt+2][OH] [Pt^IV5MESS(OH)2]
224.23

====

System: MDA−MB−231 cells
Test: Western blot protein expression
Format: cell-based
Conditions: MDA−MB−231, IC50, 72 h, representative blot Figure S26B
I'd appreciate it if you marked entries criterion met when Bcl2/GAPDH normalized to control (1) is lower than 0.8 and criterion not met when it is not.

Recorded results for 3 compounds are shown here.
N[C@H]1CCCC[C@@H]1N.O=[N+]([O-])[O-].O=[N+]([O-])[O-].[Pt+2].c1cnc2c(c1)ccc1cccnc12	criterion not met
Cc1cc2cccnc2c2ncccc12.N[C@H]1CCCC[C@@H]1N.O=[N+]([O-])[O-].O=[N+]([O-])[O-].[Pt+2]	criterion met
Cc1c(C)c2cccnc2c2ncccc12.N[C@H]1CCCC[C@@H]1N.O=[N+]([O-])[O-].O=[N+]([O-])[O-].[Pt+2]	criterion met

Lab note: confirm whether the reported Bcl2/GAPDH normalized to control (1) for this compound is below 0.8, equality not counting. compound: N.N.[Cl][Pt][Cl] [Cisplatin, cisplatin]
criterion met

Lab note: confirm whether the reported Bcl2/GAPDH normalized to control (1) for this compound is below 0.8, equality not counting. compound: Cc1c(C)c2cccnc2c2ncccc12.N[C@H]1CCCC[C@@H]1N.O=[N+]([O-])[O-].O=[N+]([O-])[O-].[OH][Pt+2][OH]
criterion not met

====

Tested on: HT29 cells
Assay: Cellular uptake of Pt by ICP-MS
Type: cell-based
Conditions: HT29, 3 µM, 30 h
Entries and their measured Intracellular Concentration follow.
# value in nmol/10^6 cells; strip the unit string

Consider the following illustrative entries.
Cc1c(C)c2cccnc2c2ncccc12.N[C@H]1CCCC[C@@H]1N.O=[N+]([O-])[O-].O=[N+]([O-])[O-].[Pt+2]	24.85
N.N.[Cl][Pt][Cl] [Cisplatin, cisplatin]	0.71

Provide Intracellular Concentration value for the following compound: Cc1c(C)c2cccnc2c2ncccc12.N[C@H]1CCCC[C@@H]1N.O=[N+]([O-])[O-].O=[N+]([O-])[O-].[OH][Pt+2][OH]
9.98

Provide Intracellular Concentration value for the following compound: N[C@H]1CCCC[C@@H]1N.O=[N+]([O-])[O-].O=[N+]([O-])[O-].[Pt+2].c1cnc2c(c1)ccc1cccnc12
16.99

Provide Intracellular Concentration value for the following compound: Cc1cc2cccnc2c2ncccc12.N[C@H]1CCCC[C@@H]1N.O=[N+]([O-])[O-].O=[N+]([O-])[O-].[OH][Pt+2][OH]
7.85

Provide Intracellular Concentration value for the following compound: N[C@H]1CCCC[C@@H]1N.O=[N+]([O-])[O-].O=[N+]([O-])[O-].[OH-].[OH-].[Pt+4].c1cnc2c(c1)ccc1cccnc12
5.79

Provide Intracellular Concentration value for the following compound: Cc1cc2cccnc2c2ncccc12.N[C@H]1CCCC[C@@H]1N.O=[N+]([O-])[O-].O=[N+]([O-])[O-].[Pt+2]
21.24

====

Test system: MDA−MB−231 cells
Assay: DCFDA cellular ROS detection assay
Assay type: cell-based
Conditions: MDA−MB−231, 48 h, complexes at IC50, TBHP 20 µM
Entries and their measured ROS production follow.
# value in RFU; strip the unit string

Consider the following illustrative entries.
N[C@H]1CCCC[C@@H]1N.O=[N+]([O-])[O-].O=[N+]([O-])[O-].[OH-].[OH-].[Pt+4].c1cnc2c(c1)ccc1cccnc12	256.83
Cc1cc2cccnc2c2ncccc12.N[C@H]1CCCC[C@@H]1N.O=[N+]([O-])[O-].O=[N+]([O-])[O-].[OH][Pt+2][OH]	264.00
CC(C)(C)OO [TBHP, tert-butyl hydroperoxide, reference compound]	400.11

Provide ROS production value for the following molecule: Cc1c(C)c2cccnc2c2ncccc12.N[C@H]1CCCC[C@@H]1N.O=[N+]([O-])[O-].O=[N+]([O-])[O-].[Pt+2]
418.08

Provide ROS production value for the following molecule: N.N.[Cl][Pt][Cl] [Cisplatin, cisplatin]
325.96

Provide ROS production value for the following molecule: Cc1c(C)c2cccnc2c2ncccc12.N[C@H]1CCCC[C@@H]1N.O=[N+]([O-])[O-].O=[N+]([O-])[O-].[OH][Pt+2][OH]
360.12

Provide ROS production value for the following molecule: N[C@H]1CCCC[C@@H]1N.O=[N+]([O-])[O-].O=[N+]([O-])[O-].[Pt+2].c1cnc2c(c1)ccc1cccnc12
285.31

Provide ROS production value for the following molecule: Cc1cc2cccnc2c2ncccc12.N[C@H]1CCCC[C@@H]1N.O=[N+]([O-])[O-].O=[N+]([O-])[O-].[Pt+2]
372.49
